Cited source for all entries: patent US5081284A

- TEST SYSTEM: calpain II (Homo sapiens)
- Sequence (P17655 whole entry): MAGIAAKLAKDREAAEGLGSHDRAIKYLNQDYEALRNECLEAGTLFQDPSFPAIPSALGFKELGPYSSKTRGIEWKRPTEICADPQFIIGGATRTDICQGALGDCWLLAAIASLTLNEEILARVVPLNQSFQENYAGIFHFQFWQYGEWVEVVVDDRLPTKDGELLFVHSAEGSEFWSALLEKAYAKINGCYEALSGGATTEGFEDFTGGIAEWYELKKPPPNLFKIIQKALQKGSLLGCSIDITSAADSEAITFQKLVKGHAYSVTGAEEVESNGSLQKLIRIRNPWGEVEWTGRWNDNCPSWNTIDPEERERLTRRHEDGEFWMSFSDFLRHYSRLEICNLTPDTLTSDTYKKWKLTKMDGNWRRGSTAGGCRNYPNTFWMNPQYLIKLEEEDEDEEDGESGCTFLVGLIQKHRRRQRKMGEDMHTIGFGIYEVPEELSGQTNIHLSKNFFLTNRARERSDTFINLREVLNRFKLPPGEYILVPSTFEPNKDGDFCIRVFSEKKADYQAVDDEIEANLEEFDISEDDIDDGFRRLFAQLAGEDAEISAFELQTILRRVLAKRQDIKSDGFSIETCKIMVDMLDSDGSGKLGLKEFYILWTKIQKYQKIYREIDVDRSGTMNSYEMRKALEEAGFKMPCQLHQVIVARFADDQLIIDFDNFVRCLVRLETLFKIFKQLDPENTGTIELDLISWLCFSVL
- Sequence (P04632 whole entry partner): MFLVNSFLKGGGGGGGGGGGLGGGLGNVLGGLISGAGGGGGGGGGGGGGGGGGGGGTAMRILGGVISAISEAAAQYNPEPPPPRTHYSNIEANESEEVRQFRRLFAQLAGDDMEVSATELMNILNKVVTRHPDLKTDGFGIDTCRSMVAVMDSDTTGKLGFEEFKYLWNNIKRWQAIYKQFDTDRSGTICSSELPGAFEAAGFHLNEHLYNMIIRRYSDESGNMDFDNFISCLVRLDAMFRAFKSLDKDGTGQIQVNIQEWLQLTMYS
- TEST: Anti-calpain activity, calpain II (casein hydrolysis, Ross-Schatz method)
- Type: biochemical
- RUN CONDITIONS: Table 4 (Example 28); pH 7.5, 30° C., 30 minutes, casein; read-out: Inhibitory activity toward calpain II, IC50
pIC50: −log10 of the molar value. Peptide text beside a SMILES is read from it. * marks the point of attachment. Cbz = O=C(OCc1ccccc1)*
Respond with Yes for pIC50 values of 7 and above, No for values below.

Consider the worked cases shown below.
{"COMPOUND": "CSCC[C@@H](C=O)NC(=O)[C@H](CC(C)C)NC(=O)OCc1ccccc1 [Example 21] (Cbz-Leu-Met-aldehyde)", "GROUP": "Yes"}
{"COMPOUND": "CC(C)C[C@H](NC(=O)CCCc1ccccc1)C(=O)N[C@H](C=O)Cc1ccccc1", "GROUP": "Yes"}
{"COMPOUND": "CCCC[C@@H](C=O)NC(=O)[C@H](CC(C)C)NC(=O)OCc1ccccc1", "GROUP": "Yes"}

Query: API: above_or_equal(metric=pIC50, cutoff=7) for item CC(C)C[C@H](NC(=O)OCc1ccccc1)C(=O)N[C@H](C=O)Cc1ccccc1 [Example 19] (Cbz-Leu-Phe-aldehyde)
Result: Yes

Query: Textbook exercise: given the entry CCCC[C@@H](C=O)NC(=O)[C@H](CC(C)C)NC(=O)CCCc1ccccc1 , state whether its pIC50 is greater than or equal to 7.
Result: No

----------
- TEST SYSTEM: papain (Carica papaya)
- Sequence (P00784 134-345): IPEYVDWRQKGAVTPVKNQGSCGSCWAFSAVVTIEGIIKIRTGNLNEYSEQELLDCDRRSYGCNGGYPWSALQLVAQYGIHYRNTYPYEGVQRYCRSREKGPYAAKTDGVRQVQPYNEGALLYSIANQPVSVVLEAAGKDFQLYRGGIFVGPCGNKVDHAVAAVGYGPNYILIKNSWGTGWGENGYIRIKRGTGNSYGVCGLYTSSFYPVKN
- TEST: Anti-papain activity (casein hydrolysis, Lowry-Folin method)
- Format: biochemical
- RUN CONDITIONS: Table 2 (Example 28); pH 6.2, 30° C., 20 minutes, casein; read-out: Inhibitory activity toward papain, IC50
compounds and their reported pIC50
FYI, pIC50 means -log10 of a concentration in mol per litre.

Some compounds with recorded pIC50:
{"COMPOUND": "CC(C)C[C@H](NC(=O)CCCc1ccccc1)C(=O)N[C@H](C=O)Cc1ccccc1 [Example 22]", "TEST SYSTEM": "papain (Carica papaya)", "pIC50": 7.74}
{"COMPOUND": "CC(=O)N[C@@H](CC(C)C)C(=O)N[C@@H](CC(C)C)C(=O)N[C@H](C=O)CCCNC(=N)N [Leupeptin, reference compound]", "TEST SYSTEM": "papain (Carica papaya)", "pIC50": 7.28}
{"COMPOUND": "CCCC[C@@H](C=O)NC(=O)[C@H](CC(C)C)NC(=O)CCCc1ccccc1 [Example 23]", "TEST SYSTEM": "papain (Carica papaya)", "pIC50": 7.82}
{"COMPOUND": "CCCC[C@H](NC(=O)[C@H](CC(C)C)NC(=O)OCc1ccccc1)C(=O)CCl [Example 26]", "TEST SYSTEM": "papain (Carica papaya)", "pIC50": 7.92}
{"COMPOUND": "CSCC[C@@H](C=O)NC(=O)[C@H](CC(C)C)NC(=O)CCCc1ccccc1 [Example 24]", "TEST SYSTEM": "papain (Carica papaya)", "pIC50": 7.72}

Next up:
Sample CCCC[C@H](NC(=O)[C@H](CC(C)C)NC(=O)CCCc1ccccc1)C(=O)CCl [Example 27] ; pIC50 observed: 7.60
